- protocol text: Comparative bioavailability study, curcumin in plasma by HPLC
- Format: in vivo, human
- protocol conditions: human, plasma, po, 1 gm, 1 gm curcuminoids oral; read-out: Tmax, Mean
reported metric: Tmax (h)
State the answer as a number, implicitly in h.

Query (molecule): COc1cc(C=CC(=O)CC(=O)C=Cc2ccc(O)c(OC)c2)ccc1O ; field requested: Tmax
8.25

====

- protocol text: Comparative bioavailability study, curcumin in plasma by HPLC
- Assay type: in vivo, human
- protocol conditions: human, plasma, po, 1 gm, time 6 hr; 1 gm curcuminoids oral; read-out: Geometric Mean plasma concentration
reported metric: concentration at 6 hr (ng/mL)
State the answer as a number, implicitly in ng/mL.

Query (molecule): COc1cc(C=CC(=O)CC(=O)C=Cc2ccc(O)c(OC)c2)ccc1O [Curcumin] ; field requested: concentration at 6 hr
3.03
